# Experimental target: full length human TPH1 (Homo sapiens, UniProt P17752)
# Construct: To generate the enzyme, full length human TPH1 is cloned into the plasmid pET20b(+); made in house; host or cells: E. coli
# Sequence (P17752 1-444): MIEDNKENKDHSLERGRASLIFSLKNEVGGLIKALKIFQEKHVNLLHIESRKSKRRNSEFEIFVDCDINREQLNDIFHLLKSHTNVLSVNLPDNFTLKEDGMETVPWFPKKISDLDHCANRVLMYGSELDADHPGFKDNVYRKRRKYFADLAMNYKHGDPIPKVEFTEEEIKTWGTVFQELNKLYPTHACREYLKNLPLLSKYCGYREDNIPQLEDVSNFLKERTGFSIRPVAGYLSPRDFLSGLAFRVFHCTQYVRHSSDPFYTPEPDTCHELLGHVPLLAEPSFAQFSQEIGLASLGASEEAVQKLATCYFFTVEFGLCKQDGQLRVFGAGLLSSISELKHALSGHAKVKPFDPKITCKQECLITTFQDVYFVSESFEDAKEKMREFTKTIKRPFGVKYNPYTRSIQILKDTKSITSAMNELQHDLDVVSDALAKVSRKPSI
# Assay info: Biochemical in vitro assay using fluorescence readout (TPH1 enzyme activity)
# Assay conditions: Table 1, mean where determined several times
pIC50: −log10 of the molar value.
Entries and their pIC50 values follow.

| Molecule | Experimental target | pIC50 |
| --- | --- | --- |
| CCc1nc(N2CCCS2(=O)=O)ccc1OCC(=O)N1CCc2nc3n(c2C1c1sc(C)nc1C)CCCC3 (centres unmarked) | full length human TPH1 (Homo sapiens, UniProt P17752) | 7.96 |
| CCc1nc(C(=O)NC2CC2)ccc1OCC(=O)N1CCc2nc3n(c2C1c1sc(C)nc1C)CCS3 (centres unmarked) | full length human TPH1 (Homo sapiens, UniProt P17752) | 8.22 |
| Cc1cc(F)cnc1C1c2c(nc3n2CCCC3)CCN1C(=O)COc1ccc(NS(C)(=O)=O)nc1Cl (centres unmarked) | full length human TPH1 (Homo sapiens, UniProt P17752) | 6.95 |
| CC(=O)N1CCn2c(nc3c2C(c2ccc(C4CC4)cc2F)N(C(=O)COc2cccnc2C(F)(F)F)CC3)C1 (centres unmarked) | full length human TPH1 (Homo sapiens, UniProt P17752) | 8.00 |
| CCc1nc(C)ccc1OCC(=O)N1CCc2nc3n(c2C1c1ccc(C2CC2)cc1F)CCN(CC1CC1)C3 (centres unmarked) | full length human TPH1 (Homo sapiens, UniProt P17752) | 7.80 |
| Cc1ccc(C2c3c(nc4n3CCCC4)CCN2C(=O)COc2ccc(N3CCN(C)CC3)nc2Cl)c(F)c1F (centres unmarked) | full length human TPH1 (Homo sapiens, UniProt P17752) | 7.74 |
| O=C(COc1ccc(C2CC2)nc1Cl)N1CCc2nc3n(c2C1c1ccc(Cl)cc1F)CCCC3 (centres unmarked) | full length human TPH1 (Homo sapiens, UniProt P17752) | 7.80 |
| CCc1nc(NS(C)(=O)=O)ccc1OCC(=O)N1CCc2nc3n(c2C1c1ccc(Cl)cc1F)CCS3 (centres unmarked) | full length human TPH1 (Homo sapiens, UniProt P17752) | 7.80 |

Data origin: patent US10189839B2
